Target: EED (Homo sapiens)
Test: EED TR-FRET Binding Assay (modified LanthaScreen competition assay)
Conditions: read-out: TR-FRET Binding
Endpoint name: IC50 (nM)
Hi! Could you send only the number? It should be in nM, unit omitted.

Looking for the measured IC50 of `CN(C)[C@H]1CN([C@H]2CCc3cccc(F)c32)C[C@@H]1c1cn(C)c2ccccc12` , can you help?
1.03

====

System: H3K27me3 in G401 cells
Test: H3K27me3 AlphaLISA assay in G401 cells
Type: cell-based
Conditions: Homo sapiens, G-401, 144 h, 6 days with compound
Endpoint name: pIC50
The meaning of pIC50 here: minus log10 of the concentration in molar units.

Looking for the measured pIC50 of CN(C)[C@H]1CN(C2CCc3cccc(F)c32)C[C@@H]1c1cn(C)c2c(C(=O)N3CC(O)C3)cccc12 (stereo partly shown) [Example 105] , can you help?
7.25

Looking for the measured pIC50 of CN(C)[C@@H]1CN([C@@H]2CCc3cccc(F)c32)C[C@H]1c1ccc(C#N)cc1 (racemic) [Example 19] , can you help?
6.14

Looking for the measured pIC50 of CN(C)[C@@H]1CN(C2CCc3cccc(F)c32)C[C@H]1c1ccc(N2CCN(C(=O)CS(C)(=O)=O)CC2)nc1 (mixture of isomers) [Example 157] , can you help?
6.64

Looking for the measured pIC50 of CNC(=O)Cn1cc(-c2ccc([C@H]3CN(C4CCc5cccc(F)c54)C[C@@H]3N(C)C)cc2)cn1 (mixture of isomers) [Example 72] , can you help?
7.40

Looking for the measured pIC50 of CN(C)[C@H]1CN(C2CCc3cccc(F)c32)C[C@@H]1c1nn(C)c2ccccc12 (mixture of isomers) [Example 156] , can you help?
6.67

Looking for the measured pIC50 of CN(C)[C@H]1CN(C2CCc3cccc(F)c32)C[C@@H]1C1CCN(c2ccc(C(N)=O)cn2)CC1 (mixture of isomers) [Example 167] , can you help?
6.88

Looking for the measured pIC50 of CN(C)[C@@H]1CN(C2CCc3cccc(F)c32)C[C@H]1c1ccc(-c2cnn(CC(N)=O)c2)nc1 (mixture of isomers) [Example 158] , can you help?
6.90

====

For each record, write down the corresponding log10 IC50.
Molecular target: EED (Homo sapiens, UniProt O75530)
Sequence (O75530 whole entry): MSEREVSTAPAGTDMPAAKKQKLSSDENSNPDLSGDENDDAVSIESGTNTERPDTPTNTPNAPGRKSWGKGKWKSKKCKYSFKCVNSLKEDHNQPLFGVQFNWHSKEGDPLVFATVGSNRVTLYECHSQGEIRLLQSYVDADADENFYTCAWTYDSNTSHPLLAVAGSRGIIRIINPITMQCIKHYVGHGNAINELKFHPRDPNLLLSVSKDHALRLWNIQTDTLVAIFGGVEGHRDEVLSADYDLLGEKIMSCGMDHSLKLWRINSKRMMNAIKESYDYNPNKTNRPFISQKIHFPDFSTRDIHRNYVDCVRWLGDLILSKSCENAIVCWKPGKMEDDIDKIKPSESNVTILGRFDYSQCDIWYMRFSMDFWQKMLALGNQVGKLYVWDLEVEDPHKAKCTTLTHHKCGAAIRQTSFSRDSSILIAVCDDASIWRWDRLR
Experiment: EED TR-FRET Binding Assay (modified LanthaScreen competition assay)
Use the decimal logarithm of IC50 (nM).

Looking for the measured log10 IC50 of CN(C)[C@H]1CN(C2CCc3cccc(F)c32)C[C@@H]1c1cn(C)c2c(C(=O)N3CCN(S(=O)(=O)c4cncn4C)CC3)cccc12 (mixture of isomers) [Example 135] , can you help?
0.16

Looking for the measured log10 IC50 of CN(C)[C@H]1CN([C@H]2CCc3cccc(F)c32)C[C@@H]1c1ccc(S(C)(=O)=O)cc1 [Example 11] , can you help?
1.36

Looking for the measured log10 IC50 of CN(C)[C@H]1CN(C2CCc3cccc(F)c32)C[C@@H]1C1CCN(c2ccccc2)CC1 (mixture of isomers) [Example 146] , can you help?
0.66

Looking for the measured log10 IC50 of CN(C)[C@@H]1CN(C2CCc3cccc(F)c32)C[C@H]1c1ccc(N2CCN(C(=O)OC(C)(C)C)CC2)cc1 (some centres unmarked) [Example 50] , can you help?
0.06

Looking for the measured log10 IC50 of CN(C)[C@H]1CN(C2CCc3cccc(F)c32)C[C@@H]1c1cn(C)c2cc(Br)ccc12 (mixture of isomers) [Example 94] , can you help?
0.69

Looking for the measured log10 IC50 of COC(=O)c1cccc2c([C@H]3CN(C4CCc5cccc(F)c54)C[C@@H]3N(C)C)cn(C)c12 (some centres unmarked) [Example 84] , can you help?
-0.53

Looking for the measured log10 IC50 of COC(=O)c1cccc2c([C@H]3CN(C4CCc5cccc(F)c54)C[C@@H]3N(C)C)cn(C)c12 (mixture of isomers) [Example 85] , can you help?
-0.25

Looking for the measured log10 IC50 of CN(C(=O)c1cccc2c([C@H]3CN(C4CCc5cccc(F)c54)C[C@@H]3N(C)C)cn(C)c12)C1CC(O)C1 (mixture of isomers) [Example 109] , can you help?
0.20

Looking for the measured log10 IC50 of CCS(=O)(=O)N1CCN(C(=O)c2cccc3c([C@H]4CN(C5CCc6cccc(F)c65)C[C@@H]4N(C)C)cn(C)c23)CC1 (mixture of isomers) [Example 130] , can you help?
0.02

Looking for the measured log10 IC50 of COC(=O)c1ccc2c([C@@H]3CN(C4CCc5cccc(F)c54)C[C@H]3N(C)C)cn(C)c2c1 (mixture of isomers) [Example 83] , can you help?
1.04

Looking for the measured log10 IC50 of CN(C)[C@H]1CN(C2CCc3cccc(F)c32)C[C@@H]1c1ccc(S(N)(=O)=O)cc1 (mixture of isomers) [Example 8] , can you help?
1.03

Looking for the measured log10 IC50 of CN(C)[C@@H]1CN(C2CCc3cccc(F)c32)C[C@H]1c1cnc2n1CCCC2 (mixture of isomers) [Example 140] , can you help?
1.79

Looking for the measured log10 IC50 of CN(C)C(=O)N1CCN(C(=O)c2cccc3c([C@H]4CN(C5CCc6cccc(F)c65)C[C@@H]4N(C)C)cn(C)c23)CC1 (mixture of isomers) [Example 127] , can you help?
0.24

Looking for the measured log10 IC50 of CN(C)[C@H]1CN(C2CCc3cccc(F)c32)C[C@@H]1c1ccc(C(=O)N2CCN(S(C)(=O)=O)CC2)cc1 (mixture of isomers) [Example 53] , can you help?
1.09

====

For each record, write down the corresponding IC50.
Tested on: H3K27me3 in G401 cells
Experiment: H3K27me3 AlphaLISA assay in G401 cells
Type: cell-based
Details: Homo sapiens, G-401, 144 h, 6 days with compound
Hi! Could you send only the number? It should be in nM, unit omitted.

Looking for the measured IC50 of CN(C)[C@H]1CN(C2CCc3cccc(F)c32)C[C@@H]1C1CCN(c2ccc(C(N)=O)cc2)CC1 (mixture of isomers) , can you help?
228

Looking for the measured IC50 of CN(C)[C@H]1CN(C2CCc3cccc(F)c32)C[C@@H]1c1cn(C)c2ncccc12 (mixture of isomers) , can you help?
291

Looking for the measured IC50 of CN(C)[C@H]1CN(C2CCc3cccc(F)c32)C[C@@H]1c1cn(C)c2c(C(=O)N3CCN(S(=O)(=O)c4cncn4C)CC3)cccc12 (mixture of isomers) , can you help?
108

Looking for the measured IC50 of CN(C)[C@H]1CN(C2CCc3cccc(F)c32)C[C@@H]1C1CCN(c2ccccn2)CC1 (mixture of isomers) , can you help?
476

Looking for the measured IC50 of CN(C)[C@H]1CN(C2CCc3cccc(F)c32)C[C@@H]1c1cn(C)c2c(C(=O)N3CCN(S(=O)(=O)N4CCC4)CC3)cccc12 (stereo partly drawn) , can you help?
63.3

Looking for the measured IC50 of CN(C)[C@H]1CN(C2CCc3cccc(F)c32)C[C@@H]1c1cn(C)c2c(C(=O)N3CC(S(C)(=O)=O)C3)cccc12 (mixture of isomers) , can you help?
225

====

For each record, write down the corresponding pIC50.
Target: EED (Homo sapiens)
Assay: EED TR-FRET Binding Assay (modified LanthaScreen competition assay)
The meaning of pIC50 here: minus log10 of the concentration in molar units.

Looking for the measured pIC50 of CN(C)[C@H]1CN(C2CCc3ccc(F)c(F)c32)C[C@@H]1c1cn(C)c2ccccc12 (some centres unmarked) , can you help?
8.37

Looking for the measured pIC50 of CCS(=O)(=O)N1CCN(c2ccc([C@H]3CN(C4CCc5cccc(F)c54)C[C@@H]3N(C)C)cc2)CC1 (mixture of isomers) , can you help?
9.13

Looking for the measured pIC50 of CNC(=O)Cn1cc(-c2ccc([C@@H]3CN(C4CCc5cccc(F)c54)C[C@H]3N(C)C)cn2)cn1 (mixture of isomers) , can you help?
9.17

Looking for the measured pIC50 of CN(C)[C@@H]1CN(C2CCc3cccc(F)c32)C[C@H]1c1cn(C)c2c(C(=O)N3CC(F)C3)cccc12 (some centres unmarked) , can you help?
7.82

Looking for the measured pIC50 of CN(C)[C@@H]1CN(C2CCc3cccc(F)c32)C[C@H]1c1ccc(N2CCN(C(=O)CS(C)(=O)=O)CC2)nc1 (mixture of isomers) , can you help?
8.85

Looking for the measured pIC50 of Cc1cc([C@H]2CN(C3CCc4cccc(F)c43)C[C@@H]2N(C)C)ccc1Br (mixture of isomers) , can you help?
8.74

Looking for the measured pIC50 of Cc1cc([C@H]2CN(C3CCc4cccc(F)c43)C[C@@H]2N(C)C)ccc1N1CCN(C)C(=O)C1 (mixture of isomers) , can you help?
8.78

Looking for the measured pIC50 of `CC(=O)N1CCN(c2ccc([C@@H]3CN([C@H]4CCc5cccc(F)c54)C[C@H]3N(C)C)cc2)CC1` , can you help?
7.37

Looking for the measured pIC50 of CN(C)[C@@H]1CN([C@@H]2CCc3cccc(F)c32)C[C@H]1C1COc2ccccc21 (mixture of isomers) , can you help?
7.08

Looking for the measured pIC50 of CN(C)[C@H]1CN([C@H]2C[C@H](O)c3cccc(F)c32)C[C@@H]1c1ccc(S(C)(=O)=O)cc1 (mixture of isomers) , can you help?
7.79

Looking for the measured pIC50 of CN(C)[C@H]1CN(C2CCc3cccc(F)c32)C[C@@H]1c1cn(C)c2cc(C(=O)N3CC(O)C3)ccc12 (mixture of isomers) , can you help?
8.97

Looking for the measured pIC50 of CN(C)[C@@H]1CN(C2CCc3cccc(F)c32)C[C@H]1c1ccc(-c2cnn(CC(=O)N3CC(O)C3)c2)nc1 (mixture of isomers) , can you help?
8.62

Looking for the measured pIC50 of CN(C)[C@H]1CN(C2CCc3cccc(F)c32)C[C@@H]1c1cn(C)c2c(C(=O)N3CCC[C@H]3C(N)=O)cccc12 (mixture of isomers) , can you help?
8.90

Looking for the measured pIC50 of CN(C)[C@H]1CN(C2CCc3cc(F)cc(F)c32)C[C@@H]1c1cn(C)c2ccccc12 (mixture of isomers) , can you help?
8.57
